target: ATP-dependent translocase ABCB1 (Homo sapiens, UniProt P08183); assay: Inhibition of p-glycoprotein expressed in human MCF-7/DX1 cells assessed as accumulation of calcein-AM by FACS analysis
Sequence (P08183 whole entry): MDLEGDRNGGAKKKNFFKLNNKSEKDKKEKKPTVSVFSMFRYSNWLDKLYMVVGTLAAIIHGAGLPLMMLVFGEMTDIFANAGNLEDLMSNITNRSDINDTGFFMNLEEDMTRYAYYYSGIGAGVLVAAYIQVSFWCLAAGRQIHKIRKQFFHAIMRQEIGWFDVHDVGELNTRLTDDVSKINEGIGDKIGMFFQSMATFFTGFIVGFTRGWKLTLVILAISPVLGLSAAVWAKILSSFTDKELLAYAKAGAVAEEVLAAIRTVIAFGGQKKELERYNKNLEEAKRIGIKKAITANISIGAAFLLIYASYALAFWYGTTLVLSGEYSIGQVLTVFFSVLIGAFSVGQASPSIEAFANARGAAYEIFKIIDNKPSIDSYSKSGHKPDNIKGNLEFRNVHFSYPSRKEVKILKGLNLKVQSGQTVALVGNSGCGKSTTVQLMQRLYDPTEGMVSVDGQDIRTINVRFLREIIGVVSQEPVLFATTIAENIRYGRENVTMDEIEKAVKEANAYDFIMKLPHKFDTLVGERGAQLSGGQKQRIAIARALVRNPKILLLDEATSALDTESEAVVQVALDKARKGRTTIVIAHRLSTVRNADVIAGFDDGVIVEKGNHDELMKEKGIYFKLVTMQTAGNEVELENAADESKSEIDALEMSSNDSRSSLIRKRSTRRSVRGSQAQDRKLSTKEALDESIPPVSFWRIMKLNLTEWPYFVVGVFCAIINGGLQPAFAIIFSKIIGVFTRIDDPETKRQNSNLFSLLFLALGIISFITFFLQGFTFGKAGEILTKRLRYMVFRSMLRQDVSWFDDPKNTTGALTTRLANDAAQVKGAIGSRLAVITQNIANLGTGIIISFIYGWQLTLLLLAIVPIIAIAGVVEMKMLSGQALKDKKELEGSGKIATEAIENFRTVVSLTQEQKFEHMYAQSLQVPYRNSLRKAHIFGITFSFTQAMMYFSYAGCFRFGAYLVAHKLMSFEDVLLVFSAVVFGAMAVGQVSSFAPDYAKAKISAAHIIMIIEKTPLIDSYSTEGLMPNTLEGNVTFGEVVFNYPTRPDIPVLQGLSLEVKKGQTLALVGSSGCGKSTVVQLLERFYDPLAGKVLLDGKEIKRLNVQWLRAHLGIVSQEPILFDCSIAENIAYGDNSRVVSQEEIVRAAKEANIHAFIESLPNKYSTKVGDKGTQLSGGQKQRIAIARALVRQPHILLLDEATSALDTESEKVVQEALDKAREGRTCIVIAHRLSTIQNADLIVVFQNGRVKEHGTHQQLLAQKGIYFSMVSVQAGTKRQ
Give IC50 for every item shown.
One number for each entry, in µM.

>  <SMILES DATA>
C=C[C@H]1CN2CC[C@H]1C[C@H]2[C@H](OC(=O)CCCCc1cn(CCCCC(=O)O[C@H](c2ccnc3ccc(OC)cc23)[C@@H]2C[C@@H]3CCN2C[C@@H]3C=C)nn1)c1ccnc2ccc(OC)cc12

>  <IC50 / µM>
4.6

$$$$

// each compound listed below needs its IC50
1. C=C[C@H]1CN2CC[C@H]1C[C@H]2[C@H](OC(=O)CCCCCCCCc1cn(CCCCCCCCC(=O)O[C@H](c2ccnc3ccc(OC)cc23)[C@@H]2C[C@@H]3CCN2C[C@@H]3C=C)nn1)c1ccnc2ccc(OC)cc12
2. C=C[C@H]1CN2CC[C@H]1C[C@H]2[C@H](OC(=O)CCCCCCc1cn(CCCCC(=O)O[C@H](c2ccnc3ccc(OC)cc23)[C@@H]2C[C@@H]3CCN2C[C@@H]3C=C)nn1)c1ccnc2ccc(OC)cc12
3. C=C[C@H]1CN2CC[C@H]1C[C@H]2[C@H](OC(=O)CCCCCCn1cc(CCCCC(=O)O[C@H](c2ccnc3ccc(OC)cc23)[C@@H]2C[C@@H]3CCN2C[C@@H]3C=C)nn1)c1ccnc2ccc(OC)cc12
4. C=C[C@H]1CN2CC[C@H]1C[C@H]2[C@H](OC(=O)CCCCCCn1cc(CCC(=O)O[C@H](c2ccnc3ccc(OC)cc23)[C@@H]2C[C@@H]3CCN2C[C@@H]3C=C)nn1)c1ccnc2ccc(OC)cc12
5. C=C[C@H]1CN2CC[C@H]1C[C@H]2[C@H](OC(=O)CCCCCCc1cn(CCCCCCC(=O)O[C@H](c2ccnc3ccc(OC)cc23)[C@@H]2C[C@@H]3CCN2C[C@@H]3C=C)nn1)c1ccnc2ccc(OC)cc12
6. C=C[C@H]1CN2CC[C@H]1C[C@H]2[C@H](OC(=O)CCc1cn(CCC(=O)O[C@H](c2ccnc3ccc(OC)cc23)[C@@H]2C[C@@H]3CCN2C[C@@H]3C=C)nn1)c1ccnc2ccc(OC)cc12

Response:
1: 4.5; 2: 2.8; 3: 2.9; 4: 3.6; 5: 2.7; 6: 6.1

Test item `C=C[C@H]1CN2CC[C@H]1C[C@H]2[C@H](OC(=O)CCCCn1cc(CCC(=O)O[C@H](c2ccnc3ccc(OC)cc23)[C@@H]2C[C@@H]3CCN2C[C@@H]3C=C)nn1)c1ccnc2ccc(OC)cc12` ; ATP-dependent translocase ABCB1 (Homo sapiens, UniProt P08183); reported IC50 was 6.2
